target: TDP-43 protein (Homo sapiens, UniProt Q13148)
Construct: BiFC fluorescent-protein fragments (two complementary halves); expressed in transfected cells
Sequence (Q13148 whole entry, the tested form may be a part): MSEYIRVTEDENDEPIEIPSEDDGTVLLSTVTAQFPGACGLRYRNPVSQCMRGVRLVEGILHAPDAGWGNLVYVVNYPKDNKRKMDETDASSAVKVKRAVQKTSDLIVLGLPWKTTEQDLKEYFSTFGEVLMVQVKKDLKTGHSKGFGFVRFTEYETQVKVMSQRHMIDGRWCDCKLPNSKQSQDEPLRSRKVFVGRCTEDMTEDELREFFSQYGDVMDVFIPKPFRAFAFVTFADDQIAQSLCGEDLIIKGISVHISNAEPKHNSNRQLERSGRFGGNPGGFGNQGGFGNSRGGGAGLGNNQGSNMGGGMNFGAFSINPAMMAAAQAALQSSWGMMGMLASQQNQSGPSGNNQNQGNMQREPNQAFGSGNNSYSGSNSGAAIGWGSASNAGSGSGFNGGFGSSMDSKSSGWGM
measurementDescription: TDP-43 aggregation inhibition in TDP-43-BiFC cell model (Forskolin-induced)
Format: cell-based
measurementConditions: read-out: TDP-43 protein aggregation inhibitory effect: Aggregation inhibitory effect (%) (@3 uM)
measuredEndpoint: inhibition at 3 µM (%)
Report only the number, with the unit % understood.

Example cases with answers are listed next.
Cn1c(N2C3CCC2COC3)nc2ccc(NN=C(C#N)C#N)cc21
82.4
N#CC(C#N)=NNc1ccc2nc(N3CC[C@@H](F)C3)oc2c1
87.8
N#CC(C#N)=NNc1ccc2nc(NC(=O)N3CC4CCC(C3)O4)sc2c1
67.7
N#CC(C#N)=NNc1ccc2nc(N3CCNCC3)sc2c1
97.9
Cn1c(N2C3CCC2COC3)nc2cc(NN=C(C#N)C#N)ccc21
62.9

Bench note: what inhibition at 3 µM did CC(=O)N1CCN(c2nc3ccc(NN=C(C#N)C#N)cc3s2)CC1 show?
88

Bench note: what inhibition at 3 µM did N#CC(C#N)=NNc1ccc2sc(N3CCOCC3)nc2c1 show?
78.1

Bench note: what inhibition at 3 µM did CCn1c(N2CCOCC2)nc2ccc(NN=C(C#N)C#N)cc21 show?
95.4

Bench note: what inhibition at 3 µM did N#CC(C#N)=NNc1ccc2nc(N3CCOCC3)oc2c1 show?
100

Bench note: what inhibition at 3 µM did CC1COCCN1c1nc2ccc(NN=C(C#N)C#N)cc2s1 (stereo not shown) show?
100

Bench note: what inhibition at 3 µM did N#CC(C#N)=NNc1ccc2nc(NC(=O)N3CCOCC3)sc2c1 show?
49.6

Bench note: what inhibition at 3 µM did Cc1ccc(-c2nc3ccc(NN=C(C#N)C#N)cc3s2)cn1 [Comparative compound 6, reference compound] show?
69.5

Bench note: what inhibition at 3 µM did CC1COCCN1c1nc2ccc(NN=C(C#N)C#N)cc2o1 (stereo not shown) show?
100

Bench note: what inhibition at 3 µM did N#CC(C#N)=NNc1ccc2nc(N3CC[C@H](F)C3)oc2c1 show?
92.9

Bench note: what inhibition at 3 µM did CN1CCN(c2nc3ccc(NN=C(C#N)C#N)cc3s2)CC1 show?
100

Bench note: what inhibition at 3 µM did N#CC(C#N)=NNc1ccc2nc(N3CCCC3)oc2c1 show?
81.1

Bench note: what inhibition at 3 µM did CC1CN(c2nc3ccc(NN=C(C#N)C#N)cc3s2)CCO1 (stereo not shown) show?
100

Bench note: what inhibition at 3 µM did CC(C)N1CCN(c2nc3ccc(NN=C(C#N)C#N)cc3s2)CC1 show?
48.2

Bench note: what inhibition at 3 µM did N#CC(C#N)=NNc1ccc2nc(N3CCC[C@H](F)C3)oc2c1 show?
64.7

---

# reported CYP2C9 (% activity); entries follow
target: CYP2C9 (Homo sapiens, UniProt P11712)
Construct: human liver microsomes (0.25 mg/mL); from tissue; host or cells: human liver microsomes
Sequence (P11712 whole entry): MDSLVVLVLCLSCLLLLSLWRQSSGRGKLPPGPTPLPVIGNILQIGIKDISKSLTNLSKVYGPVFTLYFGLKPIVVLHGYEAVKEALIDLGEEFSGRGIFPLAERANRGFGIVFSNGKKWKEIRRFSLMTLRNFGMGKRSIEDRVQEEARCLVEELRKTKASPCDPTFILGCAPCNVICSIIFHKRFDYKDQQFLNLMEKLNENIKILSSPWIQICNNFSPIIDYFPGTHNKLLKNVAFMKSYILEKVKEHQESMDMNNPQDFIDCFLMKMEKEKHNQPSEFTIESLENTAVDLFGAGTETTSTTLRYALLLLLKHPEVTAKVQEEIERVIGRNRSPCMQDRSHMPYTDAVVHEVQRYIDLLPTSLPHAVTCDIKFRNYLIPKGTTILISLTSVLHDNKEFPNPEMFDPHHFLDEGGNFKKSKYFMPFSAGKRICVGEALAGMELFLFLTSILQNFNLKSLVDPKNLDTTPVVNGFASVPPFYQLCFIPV
measurementDescription: CYP isoenzyme activity inhibition in human liver microsomes, CYP2C9
Format: in vitro ADME
measurementConditions: 10 µM compound; human liver microsomes 0.25 mg/mL; relative to control without compound
Report only the number, with the unit % activity understood.

Example cases with answers are listed next.
Cn1c(N2CCOCC2)nc2ccc(NN=C(C#N)C#N)cc21 [Compound 5]
98
COC1CCN(c2nc3ccc(NN=C(C#N)C#N)cc3o2)CC1 [Compound 17]
73.8
N#CC(C#N)=NNc1ccc2nc(N3CC[C@@H](F)C3)oc2c1 [Compound 41]
51.2
N#CC(C#N)=NNc1ccc2nc(N3CCOCC3)[nH]c2c1 [Compound 7]
67.8
CC(C)N1CCN(c2nc3ccc(NN=C(C#N)C#N)cc3s2)CC1 [Compound 27]
58.5

Provide the documented CYP2C9 (% activity) with CYP2C9 (Homo sapiens, UniProt P11712) as the system for N#CC(C#N)=NNc1ccc2nc(N3C4CCC3COC4)oc2c1 [Compound 20]
48

Provide the documented CYP2C9 (% activity) with CYP2C9 (Homo sapiens, UniProt P11712) as the system for Cc1ccc(-c2nc3ccc(NN=C(C#N)C#N)cc3s2)cn1 [Comparative compound 6, reference compound]
32.0

Provide the documented CYP2C9 (% activity) with CYP2C9 (Homo sapiens, UniProt P11712) as the system for N#CC(C#N)=NNc1ccc2nc(N3C4CCC3COC4)sc2c1 [Compound 11]
70.2

Provide the documented CYP2C9 (% activity) with CYP2C9 (Homo sapiens, UniProt P11712) as the system for CC1CN(C(=O)Nc2nc3ccc(NN=C(C#N)C#N)cc3s2)CC(C)O1 (stereo not shown) [Compound 39]
42.9

Provide the documented CYP2C9 (% activity) with CYP2C9 (Homo sapiens, UniProt P11712) as the system for N#CC(C#N)=NNc1ccc2nc(N3CC4CCC(C3)O4)sc2c1 [Compound 23]
68.5
